Listing of entries alongside the reported solubility at 0.5 h.
experiment.notes: Kinetic solubility in aqueous media C.3.b (BD Gentest Solubility Scanner)
Assay type: physicochemical
assay.context: kinetic from dmso stock; aqueous buffer, pH = 4, score; read-out: Solubility C.3.b pH = 4.
measurement.kind: solubility at 0.5 h

>>> df
                                   compound  recorded_measurement
0  O=C(NO)c1cnc(N2CCN(C(CO)c3cn(S(=O)(=O)c4ccccc4)c4ccccc34)CC2)nc1 (stereo not drawn)           10 to 50 µM
1  O=C(NO)c1cnc(N2CCN(C(CO)c3cc4ccccc4s3)CC2)nc1 (stereo not drawn)               ≤ 10 µM
2  CCN(CC1CCN(c2ncc(C(=O)NO)cn2)CC1)C(CO)c1cc2ccccc2o1 (stereo not drawn)               ≤ 10 µM
3  O=C(NO)c1cnc(N2CCN(C(CO)c3cc4ccccc4o3)CC2)nc1 (stereo not drawn)           10 to 50 µM
4  O=C(NO)c1cnc(N2CCN(C(CO)c3cccc4ccccc34)CC2)nc1 (stereo not drawn)           10 to 50 µM
5  O=C(NO)c1cnc(N2CCN(C(CO)c3ccc4ccccc4c3)CC2)nc1 (stereo not drawn)               ≤ 10 µM
